# Tested on: fresh human hepatocytes
# assay.overview: Release of active metabolite in fresh human hepatocytes
# Type: in vitro ADME
# run.conditions: 10 μM compound, fresh human hepatocytes, 6, 24 and 48 hours
Decision: FHH TP AUC compared against 2000 pmol · hr/mill cells; not below it gives satisfied, below it gives not satisfied.

compound="CCOc1nc(N)nc2c1ncn2C1OC2COP(=O)(OCC(NC(=O)OC)C(=O)OC(C)C)OC2C1(C)O (single isomer, unassigned; diastereomer 1) [Compound 14 Diastereomer 1]" assigned_class="not satisfied"
compound="CCOc1nc(N)nc2c1ncn2[C@@H]1O[C@@H]2COP(=O)(OCCSC(=O)C(C)(C)CO)O[C@H]2[C@@]1(C)O (single isomer, unassigned) [Compound 4 Diastereomer 2]" assigned_class=satisfied
compound="CCOc1nc(N)nc2c1ncn2[C@@H]1O[C@@H]2COP(=O)(OCCCC(=O)OC(C)C)O[C@H]2[C@@]1(C)O (single isomer, unassigned) [Compound 1 Diastereomer 2]" assigned_class=satisfied
compound="CCOc1nc(N)nc2c1ncn2[C@@H]1O[C@@H]2COP(=O)(OCCC(=O)OC(C)C)O[C@H]2[C@@]1(C)O (single isomer, unassigned; diastereomer 1) [Compound 22 Diastereomer 1]" assigned_class="not satisfied"
compound="CCOc1nc(N)nc2c1ncn2[C@@H]1O[C@@H]2COP(=O)(OCCCC(=O)OC(C)C)O[C@H]2[C@@]1(C)F (single isomer, unassigned) [Compound 20 Diastereomer 1]" assigned_class=satisfied
compound="CCOc1nc(N)nc2c1ncn2[C@@H]1O[C@@H]2COP(=O)(OCCSC(=O)C(C)(C)CO)O[C@H]2[C@@]1(C)F (single isomer, unassigned) [Compound 5 Diastereomer 1]" assigned_class=satisfied
compound="CCOC(=O)CCCOP1(=O)OC[C@H]2O[C@@H](n3cnc4c(OC)nc(N)nc43)[C@](C)(O)[C@@H]2O1 (single isomer, unassigned; diastereomer 1) [Compound 25 Diastereomer 1]" assigned_class=satisfied
compound="CCOc1nc(N)nc2c1ncn2[C@@H]1O[C@@H]2COP(=O)(OCCSC(=O)C(C)(C)CO)O[C@H]2[C@@]1(C)F (single isomer, unassigned) [Compound 5 Diastereomer 2]" assigned_class=satisfied
